FYI, the data here is from patent US20250320312A1.

# SYSTEM_UNDER_TEST: Peptide 1: Biotin-…-[Tyr(PC)]-acid
# Sequence (peptide, as listed by the source): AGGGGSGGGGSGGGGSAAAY
# PROTOCOL: scFv ELISA
Below: a set of entries, each annotated with reported OD450.
Kindly provide the numeric value in OD450 only, without the unit symbol.

Here is how some binders turned out for OD450.
BINDER | UNIT_STRING | OD450
PcOxP_DB01_D04 (scFv, V domains shown, scFv in periplasmic extract) VH: EVQLLESGGGLVQPGGSLRLSCAASGFTFSDFYMEWVRQAPGKGLEWVAASRNKANDYTTEYADSVKGRFTISRDNSKNTLYLQMNSLRAEDTAVYYCARDYYGSSYWYFDVWGQGTLVTVSS VL: DIVMTQSPDSLAVSLGERATINCTASESLWSSKHKVHYLAWYQQKPGQPPKLLIYGASNRYIGVPDRFSGSGSGTDFTLTISSLQAEDVAVYYCAQFYSYPLTFGGGTKVEIK | OD450 | 0.45
PcOxP_DB04_D09 (scFv, V domains shown, scFv in periplasmic extract) VH: EVQLLESGGGLVQPGGSLRLSCAASGFTDSDFYMEWVRQAPGKGLEWVAASRNKANDYTTEYADSVKGRFTISRDNSKNTLYLQMNSLRAEDTAVYYCARDYYGSSYWYFDVWGQGTLVTVSS VL: DIVMTQSPDSLAVSLGERATINCKSSESLYSSKNKVHYLAWYQQKPGQPPKLLIYGASNRYSGVPDRFSGSGSGTDFTLTISSLQAEDVAVYYCAQFYSYPLTFGGGTKVEIK | OD450 | 0.41
PcOxP_DB03_H03 (scFv, V domains shown, scFv in periplasmic extract) VH: EVQLLESGGGLVQPGGSLRLSCAASGFTGSDFYMEWVRQAPGKGLEWVAASRNKWNDYTTEYADSVKGRFTISRDNSKNTLYLQMNSLRAEDTAVYYCARDYYGSSYWYFDVWGQGTLVTVSS VL: DIQMTQSPSSLSASVGDRVTITCTASESLSSSKHKHYLAWYQQKPGKAPKLLIYGASSRYSGVPSRFSGSGSGTDFTLTISSLQPEDFATYYCAQFYSYPLTFGGGTKVEIK | OD450 | 0.27

Quick check: OD450 of PcOxP_DB02_B07 (scFv, V domains shown, scFv in periplasmic extract) VH: EVQLLESGGGLVQPGGSLRLSCAASGFTFSDQYMEWVRQAPGKGLEWVAASRNNANDYTTEYADSVKGRFTISRDNSKNTLYLQMNSLRAEDTAVYYCARDYYGSSYWYFDVWGQGTLVTVSS VL: DIVMTQSPDSLAVSLGERATINCTASESLYSSKHKVHYLAWYQQKPGQPPKLLIYGASNRQIGVPDRFSGSGSGTDFTLTISSLQAEDVAVYYCAQFYHYPLTFGGGTKVEIK ?
0.4

Quick check: OD450 of PcOxP_DB04_F05 (scFv, V domains shown, scFv in periplasmic extract) VH: EVQLLESGGGLVQPGGSLRLSCAASGFTFSDYYMEWVRQAPGKGLEWVAASRNKANDYTTEYADSVKGRFTISRDNSKNTLYLQMNSLRAEDTAVYYCARDYYGSSYWYFDVWGQGTLVTVSS VL: DIVMTQSPDSLAVSLGERATINCTASESLYSSNHKVHYLAWYQQKPGQPPKLLIYGVSNRYIGVPDRFSGSGSGTDFTLTISSLQAEDVAVYYCAQFYSYPLTFGGGTKVEIK ?
0.76
